Every entry's value here was drawn from patent US20250197490A1.

Measured EC50 (read off the curve) by item
Target: T1, biotinylated CRH (human and mouse, UniProt P01143 145-185 (rat entry), not fully specified; biotin; which end is not stated for the result (NT-biotin and CT-biotin forms were used))
T1 construct: also called biotin-CRH; CRH (NT biotin)
T1 peptide: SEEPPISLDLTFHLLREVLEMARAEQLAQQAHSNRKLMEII
Assay: ELISA, CRH (NT biotin)

{"BINDER": "PR302309-8 (antibody, human IgG1, kappa, V domains shown) VH: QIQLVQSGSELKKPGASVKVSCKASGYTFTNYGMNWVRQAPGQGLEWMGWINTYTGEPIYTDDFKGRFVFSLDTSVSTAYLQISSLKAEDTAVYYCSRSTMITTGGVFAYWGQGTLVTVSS VL: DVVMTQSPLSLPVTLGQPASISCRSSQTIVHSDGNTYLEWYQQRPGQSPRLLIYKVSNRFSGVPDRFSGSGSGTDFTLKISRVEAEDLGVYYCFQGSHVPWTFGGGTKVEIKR", "EC50 (read off the curve)": "~0.03 nM"}
{"BINDER": "PR005660 (antibody, human IgG1, kappa, V domains shown) VH: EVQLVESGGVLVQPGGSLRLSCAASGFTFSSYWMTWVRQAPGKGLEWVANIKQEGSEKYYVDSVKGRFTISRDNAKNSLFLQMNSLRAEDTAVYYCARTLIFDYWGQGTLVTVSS VL: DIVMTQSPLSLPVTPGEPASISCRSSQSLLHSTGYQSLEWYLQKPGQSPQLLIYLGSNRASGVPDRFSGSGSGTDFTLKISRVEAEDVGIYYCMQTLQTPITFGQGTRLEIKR", "EC50 (read off the curve)": "~0.03 nM"}
{"BINDER": "PR302334-26 (antibody, human IgG1, kappa, V domains shown) VH: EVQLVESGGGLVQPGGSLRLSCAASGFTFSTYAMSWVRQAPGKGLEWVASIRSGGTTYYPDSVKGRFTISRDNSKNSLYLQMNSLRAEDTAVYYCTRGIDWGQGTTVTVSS VL: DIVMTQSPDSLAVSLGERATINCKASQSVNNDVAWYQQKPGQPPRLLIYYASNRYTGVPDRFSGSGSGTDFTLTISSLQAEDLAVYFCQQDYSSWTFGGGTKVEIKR", "EC50 (read off the curve)": "~0.03 nM"}
